Numbers sourced from PubChem BioAssay AID743287.

- method.description: primary screen for activators of insulin secretion dependent on glucose, INS-1E cells, GLuc reporter luminescence (AID 743287)
- experimental.parameters: INS-1E GLuc reporter insulin secretion, 2-3 h, at 16.6 µM
The whole screen tested about 370,000 compounds, of which about 2,300 (0.62%) were called active.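 Rule for the calls: active = lowest replicate activation of at least 40%, so every replicate reaches that level; inactive = the rest.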 The full list was thinned out, with actives kept by preference.
Output constraint: value belongs to active, inactive

Lab log entry: O=C(N[C@H](Cc1ccccc1)C(=O)N1CCCN(Cc2cccs2)CC1)[C@H]1O[C@@H](n2ccc(=O)[nH]c2=O)[C@H](O)[C@@H]1O — outcome as called in the assay?
inactive

Okay, and O=C(Nc1ccccc1)c1nnsc1S(=O)(=O)c1ccc(Cl)cc1 ?
active

Okay, and Cc1ccc2nc(CN(C)C(=O)[C@@H](Cc3ccccc3)NC(=O)[C@H]3O[C@@H](n4ccc(=O)[nH]c4=O)[C@H](O)[C@@H]3O)[nH]c2c1 ?
active

Okay, and NC[C@H](Cc1ccccc1)NCCc1cc(C(F)(F)F)cc(C(F)(F)F)c1 ?
active
